Let's look at some compounds and their measured MCC at 72 h.
# protocol.details: Cytotoxicity against MDCK cells after 72 hrs by microscopic analysis
# Type: cell-based, Canis lupus familiaris
# conditions: dog
Enter your answer as a number in µM; do not include the unit.

COC(=O)[C@H]1NC(=O)[C@H]2NC(=O)[C@H](NC(=O)[C@@H]3NC(=O)[C@H]4NC(=O)[C@H](NC(=O)[C@H](N)c5ccc(O)c(c5)Oc5cc4cc(O)c5C)[C@H](O)c4ccc(cc4)Oc4cc3cc(c4O)Oc3ccc(cc3)[C@H]2O)c2ccc(O)c(c2)-c2c(O)cc(O)cc21 :: 81
N[C@H]1C(=O)N[C@@H]2Cc3ccc(c(Cl)c3)Oc3cc4cc(c3O)Oc3ccc(cc3Cl)[C@@H](O)[C@@H]3NC(=O)[C@H](NC(=O)[C@@H]4NC(=O)[C@@H](NC2=O)c2cc(O)cc(c2)Oc2cc1ccc2O)c1ccc(O)c(c1)-c1c(O)cc(O)cc1[C@@H](C(=O)O)NC3=O :: 100
COC(=O)[C@H]1NC(=O)[C@H]2NC(=O)[C@H](NC(=O)[C@@H]3NC(=O)[C@H]4NC(=O)[C@@H](Cc5ccc(c(Cl)c5)Oc5cc3cc(c5O)Oc3ccc(cc3Cl)[C@H]2O[C@@H]2O[C@H](CO)[C@@H](O)[C@H](O)[C@H]2NC(C)=O)NC(=O)[C@H](Nc2c(OC)c(=O)c2=O)c2ccc(O)c(c2)Oc2cc(O)cc4c2)c2ccc(O)c(c2)-c2c(O)cc(O)cc21 :: 100

Here is another compound to look at.
So what's the measured MCC at 72 h for this one? `CC(=O)N[C@H]1[C@H](O[C@@H]2c3ccc(c(Cl)c3)Oc3cc4cc(c3O)Oc3ccc(cc3Cl)C[C@H]3NC(=O)[C@H](Nc5c(NCc6ccc(-c7ccccc7)cc6)c(=O)c5=O)c5ccc(O)c(c5)Oc5cc(O)cc(c5)[C@H](NC3=O)C(=O)N[C@H]4C(=O)N[C@H]3C(=O)N[C@@H]2C(=O)N[C@H](C(=O)O)c2cc(O)cc(O)c2-c2cc3ccc2O)O[C@H](CO)[C@@H](O)[C@@H]1O` 0.8

----------
Let's look at some compounds and their measured MCC at 72 h.
# protocol.details: Cytotoxicity against MDCK cells after 72 hrs by microscopic analysis
# Format: cell-based, Canis lupus familiaris
# conditions: dog

Consider the worked cases shown below.
NC12CC3CC(CC(C3)C1)C2 :: > 500 µM
NC(=O)c1ncn([C@@H]2O[C@H](CO)[C@@H](O)[C@H]2O)n1 :: > 100 µM

So what's the measured MCC at 72 h for this one? CC(N)C12CC3CC(CC(C3)C1)C2 (stereo not given) > 500 µM

For `COC(=O)[C@H]1NC(=O)[C@H]2NC(=O)[C@H](NC(=O)[C@@H]3NC(=O)[C@H]4NC(=O)[C@@H](Cc5ccc(c(Cl)c5)Oc5cc3cc(c5O)Oc3ccc(cc3Cl)[C@H]2O[C@@H]2O[C@H](CO)[C@@H](O)[C@H](O)[C@H]2NC(C)=O)NC(=O)[C@H](N)c2ccc(O)c(c2)Oc2cc(O)cc4c2)c2ccc(O)c(c2)-c2c(O)cc(O)cc21` then? 100 µM

For `COC(=O)[C@H]1NC(=O)[C@H]2NC(=O)[C@H](NC(=O)[C@@H]3NC(=O)[C@H]4NC(=O)[C@H](NC(=O)[C@H](Nc5c(NCc6ccc(-c7ccccc7)cc6)c(=O)c5=O)c5ccc(O)c(c5)Oc5cc4cc(O)c5C)[C@H](O)c4ccc(cc4)Oc4cc3cc(c4O)Oc3ccc(cc3)[C@H]2O)c2ccc(O)c(c2)-c2c(O)cc(O)cc21` then? 20 µM

----------
Let's look at some compounds and their measured EC50.
# System: Influenza B virus
# protocol.details: Antiviral activity against Influenza B virus (B/Hong Kong/05/1972) infected in MDCK cells assessed as cell viability after 72 hrs by MTS assay
# Assay type: functional, cell-based
# conditions: B/Hong Kong/05/1972, MDCK

CC(N)C12CC3CC(CC(C3)C1)C2 (configuration not stated) :: > 500 µM
CC(=O)N[C@H]1[C@H](O[C@@H]2c3ccc(c(Cl)c3)Oc3cc4cc(c3O)Oc3ccc(cc3Cl)C[C@H]3NC(=O)[C@H](N)c5ccc(O)c(c5)Oc5cc(O)cc(c5)[C@H](NC3=O)C(=O)N[C@H]4C(=O)N[C@H]3C(=O)N[C@@H]2C(=O)N[C@H](C(=O)O)c2cc(O)cc(O)c2-c2cc3ccc2O)O[C@H](CO)[C@@H](O)[C@@H]1O :: > 100 µM
COC(=O)[C@H]1NC(=O)[C@H]2NC(=O)[C@H](NC(=O)[C@@H]3NC(=O)[C@H]4NC(=O)[C@H](NC(=O)[C@H](N)c5ccc(O)c(c5)Oc5cc4cc(O)c5C)[C@H](O)c4ccc(cc4)Oc4cc3cc(c4O)Oc3ccc(cc3)[C@H]2O)c2ccc(O)c(c2)-c2c(O)cc(O)cc21 :: 5.4 µM
COC(=O)[C@H]1NC(=O)[C@H]2NC(=O)[C@H](NC(=O)[C@@H]3NC(=O)[C@H]4NC(=O)[C@@H](Cc5ccc(c(Cl)c5)Oc5cc3cc(c5O)Oc3ccc(cc3Cl)[C@H]2O[C@@H]2O[C@H](CO)[C@@H](O)[C@H](O)[C@H]2NC(C)=O)NC(=O)[C@H](Nc2c(NCc3ccc(-c5ccccc5)cc3)c(=O)c2=O)c2ccc(O)c(c2)Oc2cc(O)cc4c2)c2ccc(O)c(c2)-c2c(O)cc(O)cc21 :: > 100 µM
COC(=O)[C@H]1NC(=O)[C@H]2NC(=O)[C@H](NC(=O)[C@@H]3NC(=O)[C@H]4NC(=O)[C@@H](Cc5ccc(c(Cl)c5)Oc5cc3cc(c5O)Oc3ccc(cc3Cl)[C@H]2O[C@@H]2O[C@H](CO)[C@@H](O)[C@H](O)[C@H]2NC(C)=O)NC(=O)[C@H](Nc2c(OC)c(=O)c2=O)c2ccc(O)c(c2)Oc2cc(O)cc4c2)c2ccc(O)c(c2)-c2c(O)cc(O)cc21 :: > 100 µM

Identify the measured EC50 of `COC(=O)[C@H]1NC(=O)[C@H]2NC(=O)[C@H](NC(=O)[C@@H]3NC(=O)[C@H]4NC(=O)[C@H](NC(=O)[C@H](Nc5c(NCc6ccc(-c7ccccc7)cc6)c(=O)c5=O)c5ccc(O)c(c5)Oc5cc4cc(O)c5C)[C@H](O)c4ccc(cc4)Oc4cc3cc(c4O)Oc3ccc(cc3)[C@H]2O)c2ccc(O)c(c2)-c2c(O)cc(O)cc21` for Influenza B virus. 1 µM

For `NC12CC3CC(CC(C3)C1)C2` then? > 500 µM

For `COC(=O)[C@H]1NC(=O)[C@H]2NC(=O)[C@H](NC(=O)[C@@H]3NC(=O)[C@H]4NC(=O)[C@@H](Cc5ccc(cc5)Oc5cc3cc(c5O)Oc3ccc(cc3)[C@H]2O)NC(=O)[C@H](Nc2c(NCc3ccc(-c5ccccc5)cc3)c(=O)c2=O)c2ccc(O)c(c2)Oc2cc(O)cc4c2)c2ccc(O)c(c2)-c2c(O)cc(O)cc21` then? > 100 µM

For `O=C1N[C@H]2C(=O)N[C@H]3C(=O)N[C@H](C(=O)N[C@H](C(=O)O)c4cc(O)cc(O)c4-c4cc3ccc4O)[C@H](O)c3ccc(c(Cl)c3)Oc3cc2cc(c3O)Oc2ccc(cc2Cl)C[C@H]2NC(=O)[C@H](Nc3c(NCc4ccc(-c5ccccc5)cc4)c(=O)c3=O)c3ccc(O)c(c3)Oc3cc(O)cc(c3)[C@@H]1NC2=O` then? > 100 µM

For `COC(=O)[C@H]1NC(=O)[C@H]2NC(=O)[C@H](NC(=O)[C@@H]3NC(=O)[C@H]4NC(=O)[C@@H](Cc5ccc(c(Cl)c5)Oc5cc3cc(c5O)Oc3ccc(cc3Cl)[C@H]2O)NC(=O)[C@H](Nc2c(NCc3ccc(-c5ccccc5)cc3)c(=O)c2=O)c2ccc(O)c(c2)Oc2cc(O)cc4c2)c2ccc(O)c(c2)-c2c(O)cc(O)cc21` then? > 100 µM

For `COC(=O)[C@H]1NC(=O)[C@H]2NC(=O)[C@H](NC(=O)[C@@H]3NC(=O)[C@H]4NC(=O)[C@@H](Cc5ccc(c(Cl)c5)Oc5cc3cc(c5O)Oc3ccc(cc3Cl)[C@H]2O[C@@H]2O[C@H](CO)[C@@H](O)[C@H](O)[C@H]2NC(C)=O)NC(=O)[C@H](N)c2ccc(O)c(c2)Oc2cc(O)cc4c2)c2ccc(O)c(c2)-c2c(O)cc(O)cc21` then? > 100 µM

For `NC(=O)c1ncn([C@@H]2O[C@H](CO)[C@@H](O)[C@H]2O)n1` then? 3.4 µM

----------
# Tested on: Bacillus spizizenii
# protocol.details: Antibacterial activity against Bacillus subtilis ATCC 6633 by broth microdilution method
# Type: functional
Let's look at some compounds and their measured MIC.
Enter your answer as a number in µg/mL; do not include the unit.

COC(=O)[C@H]1NC(=O)[C@H]2NC(=O)[C@H](NC(=O)[C@@H]3NC(=O)[C@H]4NC(=O)[C@@H](Cc5ccc(c(Cl)c5)Oc5cc3cc(c5O)Oc3ccc(cc3Cl)[C@H]2O[C@@H]2O[C@H](CO)[C@@H](O)[C@H](O)[C@H]2NC(C)=O)NC(=O)[C@H](Nc2c(NCc3ccc(-c5ccccc5)cc3)c(=O)c2=O)c2ccc(O)c(c2)Oc2cc(O)cc4c2)c2ccc(O)c(c2)-c2c(O)cc(O)cc21 :: 8

Here is another compound to look at.
So what's the measured MIC for this one? `COC(=O)[C@H]1NC(=O)[C@H]2NC(=O)[C@H](NC(=O)[C@@H]3NC(=O)[C@H]4NC(=O)[C@@H](Cc5ccc(c(Cl)c5)Oc5cc3cc(c5O)Oc3ccc(cc3Cl)[C@H]2O[C@@H]2O[C@H](CO)[C@@H](O)[C@H](O)[C@H]2NC(C)=O)NC(=O)[C@H](N)c2ccc(O)c(c2)Oc2cc(O)cc4c2)c2ccc(O)c(c2)-c2c(O)cc(O)cc21` 0.5

Recorded values, source ChEMBL document CHEMBL3414508.
